src = ChEMBL document CHEMBL1153318

Test: Protein binding in human plasma at 2000 ng/mL after 6 hrs by equilibrium dialysis method
Type: ADME, cell-free
Conditions: read-out: PPB (converted)
quantity-name: fraction unbound at 6 h, 2000 ng/mL
Give the figure only, with no unit attached.

// solved cases for fraction unbound at 6 h, 2000 ng/mL follow
INSERT INTO results (compound, reported_measurement) VALUES
  ('CC(Oc1cc(-n2cnc3ccc(OC4CCNCC4)cc32)sc1C(N)=O)c1ccccc1C(F)(F)F (single isomer, unassigned)', 0.034),
  ('COc1ccc2ncn(-c3cc(O[C@H](C)c4ccccc4Cl)c(C(N)=O)s3)c2c1 [GSK-317314A]', 0.005),
  ('CC(Oc1cc(-n2cnc3ccc(OCC4CCN(C)CC4)cc32)sc1C(N)=O)c1ccccc1C(F)(F)F (single isomer, unassigned) [GSK-326090A]', 0.023),
  ('CC(Oc1cc(-n2cnc3ccc(OC4CCN(C)CC4)cc32)sc1C(N)=O)c1ccccc1C(F)(F)F (single isomer, unassigned)', 0.052);

Proceeding to the next compound to report its fraction unbound at 6 h, 2000 ng/mL.
Query block: Give the measured fraction unbound at 6 h, 2000 ng/mL of CC(Oc1cc(-n2cnc3ccc(OCCCN(C)C)cc32)sc1C(N)=O)c1ccccc1Cl (single isomer, unassigned) .
Result block: 0.026

---

Listed here are molecules together with their documented pIC50.
Molecular target: Serine/threonine-protein kinase Nek2 (Homo sapiens, UniProt P51955)
Sequence (P51955 whole entry): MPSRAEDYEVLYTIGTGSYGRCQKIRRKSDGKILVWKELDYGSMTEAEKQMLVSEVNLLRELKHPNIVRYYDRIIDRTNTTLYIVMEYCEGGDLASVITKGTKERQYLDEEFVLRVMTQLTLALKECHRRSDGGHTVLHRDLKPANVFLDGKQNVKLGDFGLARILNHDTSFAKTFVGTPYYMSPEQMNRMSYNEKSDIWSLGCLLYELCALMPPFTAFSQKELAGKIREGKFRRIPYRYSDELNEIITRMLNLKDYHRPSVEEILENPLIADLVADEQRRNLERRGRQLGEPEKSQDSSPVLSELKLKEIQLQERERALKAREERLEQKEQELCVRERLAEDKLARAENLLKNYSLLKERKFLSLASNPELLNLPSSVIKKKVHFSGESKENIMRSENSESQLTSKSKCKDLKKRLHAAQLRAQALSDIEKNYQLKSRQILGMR
Please treat pIC50 as minus the base-10 logarithm of the molar concentration.

INSERT INTO measurements (molecule, reported_measurement) VALUES
  ('CC(Oc1cc(-n2cnc3ccc(OC4CCN(C)CC4)cc32)sc1C(N)=O)c1ccccc1Cl (single isomer, unassigned) [GSK-579289A]', 7.68);

Proceeding to the next molecule to report its pIC50.
Query block: Give the measured pIC50 of CC(Oc1cc(-n2cnc3ccc(OC4CCN(C)CC4)cc32)sc1C(N)=O)c1ccccc1C(F)(F)F (single isomer, unassigned) .
Result block: 7.60

---

Listed here are molecules together with their documented IC50.
Tested on: COLO 205
Assay: Antiproliferative activity against human COLO205 cells after 72 hrs by luminescence-based cell viability assay
Format: functional
Settings: COLO 205, 72 h
Numbers only; they are read as nM.

INSERT INTO measurements (molecule, reported_measurement) VALUES
  ('CC(Oc1cc(-n2cnc3ccc(OC4CCN(C)CC4)cc32)sc1C(N)=O)c1ccccc1C(F)(F)F (single isomer, unassigned)', 5);

Proceeding to the next molecule to report its IC50.
Query block: Recorded IC50 for CC(Oc1cc(-n2cnc3ccc(OC4CCN(C)CC4)cc32)sc1C(N)=O)c1ccccc1Cl (single isomer, unassigned) [GSK-579289A] with COLO 205, please?
Result block: 5
